Attribution: ChEMBL document CHEMBL4261511

The following molecules each carry a recorded IC50 for Dihydroorotate dehydrogenase (quinone), mitochondrial (Homo sapiens).

Value (IC50, Dihydroorotate dehydrogenase (quinone), mitochondrial (Homo sapiens)) for record COC(=O)/C(C#N)=C1\SCC(=O)N1c1ccc(OC)cc1 = 9.45 µM

The recorded IC50 with Dihydroorotate dehydrogenase (quinone), mitochondrial (Homo sapiens) for CCOC(=O)C(C(=O)OCC)=C1SCC(=O)N1c1ccccc1F was > 10 µM

For COC(=O)/C(C#N)=C1\SCC(=O)N1c1ccnc(Cl)c1 on Dihydroorotate dehydrogenase (quinone), mitochondrial (Homo sapiens), measured IC50 was > 10 µM

IC50 on Dihydroorotate dehydrogenase (quinone), mitochondrial (Homo sapiens) for COC(=O)/C(C#N)=C1\SCC(=O)N1c1ccc(C(=O)O)cc1 is > 10 µM

The recorded IC50 with Dihydroorotate dehydrogenase (quinone), mitochondrial (Homo sapiens) for N#C/C(C(=O)O)=C1/SCC(=O)N1c1ccccc1F was > 10 µM

Record COC(=O)/C(C#N)=C1\SCC(=O)N1c1ccccc1I ; system Dihydroorotate dehydrogenase (quinone), mitochondrial (Homo sapiens); IC50 = > 10 µM

Tested on Dihydroorotate dehydrogenase (quinone), mitochondrial (Homo sapiens), the item O=C1CSC(=S)N1c1ccc(C(F)(F)F)cc1 showed IC50 equal to > 10 µM

Here COC(=O)/C(C#N)=C1\SCC(=O)N1c1ccc(OC)cc1F was tested on Dihydroorotate dehydrogenase (quinone), mitochondrial (Homo sapiens), and its IC50 came to > 10 µM

Kindly note: Dihydroorotate dehydrogenase (quinone), mitochondrial (Homo sapiens), COC(=O)/C(C#N)=C1\SCC(=O)N1c1ccc(Br)cc1 , IC50 value reported: 2.68 µM

Sample COC(=O)/C(C#N)=C1\SCCC(=O)N1c1ccccc1F , system: Dihydroorotate dehydrogenase (quinone), mitochondrial (Homo sapiens). Its IC50 is > 10 µM

Given the molecule COC(=O)/C(C#N)=C1\SCC(=O)N1c1ccccc1F and test system Dihydroorotate dehydrogenase (quinone), mitochondrial (Homo sapiens), the measured IC50 is > 10 µM

// IC50 (Dihydroorotate dehydrogenase (quinone), mitochondrial (Homo sapiens)) for CCCOC(=O)/C(C#N)=C1\SCC(=O)N1c1ccccc1F = > 10 µM

----------
# study target: Dihydroorotate dehydrogenase (quinone), mitochondrial (Homo sapiens, UniProt Q02127)
# Sequence (Q02127 whole entry): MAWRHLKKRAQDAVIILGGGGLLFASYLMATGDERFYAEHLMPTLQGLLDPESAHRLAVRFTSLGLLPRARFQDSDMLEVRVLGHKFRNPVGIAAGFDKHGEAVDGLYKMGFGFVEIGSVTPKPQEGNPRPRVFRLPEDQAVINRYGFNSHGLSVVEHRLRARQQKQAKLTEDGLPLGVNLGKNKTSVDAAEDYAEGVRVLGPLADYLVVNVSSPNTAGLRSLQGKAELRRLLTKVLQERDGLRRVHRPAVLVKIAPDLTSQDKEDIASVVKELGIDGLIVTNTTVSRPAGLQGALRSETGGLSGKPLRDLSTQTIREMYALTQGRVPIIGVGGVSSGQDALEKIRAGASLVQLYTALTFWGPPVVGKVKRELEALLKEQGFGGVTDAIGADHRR
# measurement description: Inhibition of human DHODH at 10 uM using dihydroorotate substrate by DCIP assay relative to control
assay metric: inhibition (%)
Could you give me the number in %? Just the number is fine.

The compound O=C1CSC(=S)N1c1ccc(C(F)(F)F)cc1 on Dihydroorotate dehydrogenase (quinone), mitochondrial (Homo sapiens, UniProt Q02127): inhibition was 25.6

Param item: COC(=O)/C(C#N)=C1\SCC(=O)N1c1ccc(C(F)(F)F)cc1 ; param system: Dihydroorotate dehydrogenase (quinone), mitochondrial (Homo sapiens, UniProt Q02127); output inhibition: 74.4

inhibition value, target or system Dihydroorotate dehydrogenase (quinone), mitochondrial (Homo sapiens, UniProt Q02127), for COC(=O)/C(C#N)=C1\SCC(=O)N1c1cccc(Cl)n1 : 43.7

I looked up COC(=O)/C(C#N)=C1\SCC(=O)N1c1ccc(OC)cc1 and its inhibition for Dihydroorotate dehydrogenase (quinone), mitochondrial (Homo sapiens, UniProt Q02127) was 52.5

Kindly note: Dihydroorotate dehydrogenase (quinone), mitochondrial (Homo sapiens, UniProt Q02127), COC(=O)/C(C#N)=C1\SCC(=O)N1c1ccc(F)cc1 , inhibition value reported: 49.4

Measured on Dihydroorotate dehydrogenase (quinone), mitochondrial (Homo sapiens, UniProt Q02127), COC(=O)/C(C#N)=C1\SCC(=O)N1c1ccc(OC)cc1F has a documented inhibition of 40.4

Dihydroorotate dehydrogenase (quinone), mitochondrial (Homo sapiens, UniProt Q02127) assay, compound COC(=O)/C(C#N)=C1\SCC(=O)N1c1ccccc1F , recorded inhibition = 34.9

Summary line: COC(=O)/C(C#N)=C1\SCC(=O)N1c1cccc2ccccc12 , Dihydroorotate dehydrogenase (quinone), mitochondrial (Homo sapiens, UniProt Q02127), reported inhibition = 21.9

inhibition value, target or system Dihydroorotate dehydrogenase (quinone), mitochondrial (Homo sapiens, UniProt Q02127), for COC(=O)/C(C#N)=C1\SCC(=O)N1c1ccc2ccccc2c1 : 80.3

The compound COC(=O)/C(C#N)=C1\SCC(=O)N1c1ccc([N+](=O)[O-])cc1 , tested on Dihydroorotate dehydrogenase (quinone), mitochondrial (Homo sapiens, UniProt Q02127), showed inhibition of 62.9

Measured inhibition for this entry CCOC(=O)C(C(=O)OCC)=C1SCC(=O)N1c1ccccc1F on Dihydroorotate dehydrogenase (quinone), mitochondrial (Homo sapiens, UniProt Q02127): 8.71

// inhibition (Dihydroorotate dehydrogenase (quinone), mitochondrial (Homo sapiens, UniProt Q02127)) for COC(=O)/C(C#N)=C1\SCC(=O)N1c1ccc(Br)cc1 = 69

Observed inhibition, Dihydroorotate dehydrogenase (quinone), mitochondrial (Homo sapiens, UniProt Q02127), COC(=O)/C(C#N)=C1\SCC(=O)N1c1ccnc(Cl)c1 : 45.4

# value of inhibition, Dihydroorotate dehydrogenase (quinone), mitochondrial (Homo sapiens, UniProt Q02127), item COC(=O)/C(C#N)=C1\SCC(=O)N1c1ccccc1I = 18.4

inhibition on Dihydroorotate dehydrogenase (quinone), mitochondrial (Homo sapiens, UniProt Q02127) for CCCCOC(=O)/C(C#N)=C1\SCC(=O)N1c1ccccc1F is 28.8

CC(C)(C)OC(=O)/C(C#N)=C1\SCC(=O)N1c1ccccc1F tested on Dihydroorotate dehydrogenase (quinone), mitochondrial (Homo sapiens, UniProt Q02127) gave inhibition: 33.9

Recorded inhibition for N#C/C(C(N)=O)=C1/SCC(=O)N1c1ccccc1F on Dihydroorotate dehydrogenase (quinone), mitochondrial (Homo sapiens, UniProt Q02127) was 11.8

Readout inhibition for COC(=O)/C(C#N)=C1\SCC(=O)N1c1cccc(F)c1 , test system Dihydroorotate dehydrogenase (quinone), mitochondrial (Homo sapiens, UniProt Q02127), was 34.1

The compound COC(=O)C(C(=O)OC)=C1SCC(=O)N1c1ccccc1F , when measured on Dihydroorotate dehydrogenase (quinone), mitochondrial (Homo sapiens, UniProt Q02127), yielded inhibition of 4.27

I looked up N#C/C(C(=O)O)=C1/SCC(=O)N1c1ccccc1F and its inhibition for Dihydroorotate dehydrogenase (quinone), mitochondrial (Homo sapiens, UniProt Q02127) was 14.9

Entry COC(=O)/C(C#N)=C1\SCC(=O)N1c1ccc(C(=O)O)cc1 , Dihydroorotate dehydrogenase (quinone), mitochondrial (Homo sapiens, UniProt Q02127) data, inhibition value: 15.1

Observed inhibition, Dihydroorotate dehydrogenase (quinone), mitochondrial (Homo sapiens, UniProt Q02127), COC(=O)/C(C#N)=C1\SCCN1c1ccccc1F : 11.1

The observed inhibition for CCCOC(=O)/C(C#N)=C1\SCC(=O)N1c1ccccc1F when tested with Dihydroorotate dehydrogenase (quinone), mitochondrial (Homo sapiens, UniProt Q02127) stands at 33.5

Item CCOC(=O)/C(C#N)=C1\SCC(=O)N1c1ccccc1F was tested on Dihydroorotate dehydrogenase (quinone), mitochondrial (Homo sapiens, UniProt Q02127); the reported inhibition is 38.2

----------
Assignment: determine reported inhibition for the given compounds.
# study target: Dihydroorotate dehydrogenase (quinone), mitochondrial (Homo sapiens)
# measurement description: Inhibition of human DHODH at 10 uM using dihydroorotate substrate by DCIP assay relative to control

Reported inhibition for COC(=O)/C(C#N)=C1\SCC(=O)N1c1ccc(C(C)(C)C)cc1 was 79.1%

Briefly, inhibition measured for COC(=O)/C(C#N)=C1\SCC(=O)N1c1ccccc1Cl : 40%

Notebook: COC(=O)/C(C#N)=C1\SCC(=O)N1c1cccc(Cl)c1 , inhibition read as 56.9%

For record COC(=O)/C(C#N)=C1\SCCC(=O)N1c1ccccc1F the listed inhibition is 15.7%
